- system_under_test: Estrogen receptor (Homo sapiens)
- protocol_details: qHTS assay to identify small molecule antagonists of the estrogen receptor alpha (ER-alpha) signaling pathway using the BG1 cell line in the presence of 0.1 nM 17-beta-estradiol (AID 1259244); further: nearly all actives have a fitted effect of over 50% in size
- condition_context: VM7Luc4E2 (BG1) ERE-luciferase, antagonist mode, 0.1 nM E2, 22 h; series mostly up to 92.4 µM
Records with an inconclusive call do not appear. Activity calls are given as the source filed them. The call rests on the fitted dose curve; in most records, active means well fitted inhibition curve with a large enough effect in the repeat runs; inconclusive means weak or mixed curves; inactive means no such curve, though single readings can be large or run the other way.
measured_parameter: outcome

Some solved entries appear below for comparison.
Prompt line: Which measured outcome value corresponds to "C=C(C)C(=O)OCCCCCC" ?
Response line: inactive

Prompt line: Form field: reported outcome of "CCC(=O)O"
Response line: inactive

Prompt line: For the compound shown here, "OC[C@@H](O)[C@@H](O)[C@H](O)[C@@H](O)CO" , give the reported outcome.
Response line: inactive

Prompt line: Which measured outcome value corresponds to "O=S(=O)(Oc1ccc(Cl)cc1Cl)c1ccccc1" ?
Response line: inactive

New cases:
Prompt line: Bench note: what outcome did "CC[Si](OC(C)=O)(OC(C)=O)OC(C)=O" show?
Response line: inactive

Prompt line: Need outcome of "CCCCCCCCC" , thanks.
Response line: inactive

Prompt line: # outcome lookup, item "CC(C)Cc1ccccc1"
Response line: inactive

Prompt line: For the compound shown here, "CCCCCC/C=C/CCCCCCCC(=O)O" , give the reported outcome.
Response line: inactive

* * *

- protocol_details: qHTS assay for small molecule activators of the heat shock response signaling pathway - cell viability counter screen (AID 743209); further: nearly all actives have a fitted effect of over 50% in size
- condition_context: HSE-bla HeLa viability, CellTiter-Glo luminescence, 5 h; series mostly up to 62.6 µM
Inconclusive results are not listed. The source made the active and inactive calls. Calls come from the whole dose curve; as a rule, active = well fitted cell-killing curve with a large enough effect in the repeat runs; inconclusive = weak or mixed curves, or effect the other way; inactive = no such curve, though single readings can be large or run the other way.
measured_parameter: outcome

// solved cases for outcome follow
Prompt line: What value of outcome has been recorded for this entry: "C=C1CC[C@H](O)CC1=C/C=C1\CCC[C@]2(C)[C@@H]([C@H](C)/C=C/[C@H](C)C(C)C)CC[C@@H]12"
Response line: inactive

Prompt line: Given the entry "O=S(=O)(O)CCS" , report its measured outcome.
Response line: inactive

Prompt line: Which outcome is reported for this compound? "O=C(O)c1cc(-c2ccccc2)nc2ccccc12"
Response line: inactive

Prompt line: Looking for the measured outcome of "OC1CCCC1" , can you help?
Response line: inactive

Prompt line: # lookup: outcome of "CS(=O)(=O)c1ccc([C@@H](O)[C@@H](CO)NC(=O)C(Cl)Cl)cc1"
Response line: inactive

New cases:
Prompt line: # lookup: outcome of "CCCCCCC(C)(C)S"
Response line: inactive

Prompt line: Need outcome, item "Cc1ccc(C(=O)O)o1"
Response line: inactive

Prompt line: # get_value(readout='outcome', item= "CS(=O)(=O)Nc1ccc([N+](=O)[O-])cc1Oc1ccccc1" )
Response line: inactive

Prompt line: Endpoint output: outcome of "Cc1ccc(N)c(S(=O)(=O)O)c1" . Value?
Response line: inactive

Prompt line: // returns reported outcome for input CCCCCCCCCCC=CC1CC(=O)OC1=O (stereo not drawn)
Response line: inactive

Prompt line: Dear colleague, I am looking for the recorded outcome of the following compound: "C=C(C)C(=O)OCCCCCCCCCCCC"
Response line: inactive

Prompt line: Quick one: outcome for "C=C(C)C(=O)OCCCCCC" ?
Response line: inactive

Prompt line: Given the entry "CC#C[C@]1(O)CC[C@H]2[C@@H]3CCC4=CC(=O)CCC4=C3[C@@H](c3ccc(N(C)C)cc3)C[C@@]21C" , report its measured outcome.
Response line: inactive

* * *

- protocol_details: Caspase-3/7 induction in HepG2 cells by small molecules, qHTS cell viability counter screen (AID 1346981); further: nearly all actives have a fitted effect of over 30% in size
- condition_context: CellTiter-Fluor fluorescence, 17 h; series mostly up to 92.4 µM
Results filed as inconclusive are left out. Active and inactive are the calls of the source. The call rests on the fitted dose curve; in most records, active means well fitted cell-killing curve with a large enough effect in the repeat runs; inconclusive means weak or mixed curves, or effect the other way; inactive means flat fitted curve, though single readings scatter.
measured_parameter: outcome

Record excerpt, results attached:
Prompt line: Which outcome value is on record for "c1ccc2[nH]cnc2c1" ?
Response line: inactive

Prompt line: Param item = "C[C@@H](O)[C@H]1C(=O)N2C(C(=O)O)=C(S[C@@H]3CN[C@H](C(=O)N(C)C)C3)[C@H](C)[C@H]12" ; retrieve measured outcome.
Response line: inactive

Prompt line: Consider the molecule shown here: "O=C(Cl)c1c(Cl)c(Cl)c(C(=O)Cl)c(Cl)c1Cl" What is its recorded outcome?
Response line: inactive

Prompt line: Endpoint output: outcome of "Cc1cc(NS(=O)(=O)c2ccc(N)cc2)no1" . Value?
Response line: inactive

Prompt line: Consider the molecule shown here: "CC(C)Cc1ccccc1" What is its recorded outcome?
Response line: inactive

# next molecule below
Prompt line: Record request: outcome value, item "CCCCNC(N)=O"
Response line: inactive

* * *

- system_under_test: Peroxisome proliferator-activated receptor gamma (Homo sapiens)
- protocol_details: qHTS assay to identify small molecule antagonists of the peroxisome proliferator-activated receptor gamma (PPARg) signaling pathway (AID 743191); further: nearly all actives have a fitted effect of over 30% in size
- condition_context: HEK293H PPARg-UAS-bla, beta-lactamase ratio, antagonist, 17 h; series mostly up to 62.6 µM
Inconclusive results are not listed. Activity calls are given as the source filed them. The call rests on the fitted dose curve.
measured_parameter: outcome

Prompt line: What value of outcome has been reported for the following molecule? "NS(=O)(=O)c1cc2c(cc1Cl)NC=NS2(=O)=O"
Response line: inactive

Prompt line: Could you share which outcome value was measured for "O=C(Cl)c1c(Cl)c(Cl)c(C(=O)Cl)c(Cl)c1Cl" ?
Response line: inactive

Prompt line: What value of measured outcome is listed for "NCCc1ccc(O)c(O)c1" ?
Response line: inactive

Prompt line: Give the measured outcome of CCCCCCCCCCCCOCC1CO1 (centres undefined) .
Response line: inactive

Prompt line: I am curious: what outcome value has been reported for "CC(C)Cc1ccccc1" ?
Response line: inactive

Prompt line: Consider the molecule shown here: "CCCCCCC(C)(C)S" What is its recorded outcome?
Response line: inactive

Prompt line: Tell me the measured outcome of "Cc1cc(=O)[nH]c(C(C)C)n1" , please.
Response line: inactive

Prompt line: I would be grateful if you could share the reported outcome for "COCC(=O)O" .
Response line: inactive

---
Prompt line: outcome lookup needed for "Cc1cc(O)cc(C)c1Cl" , thanks.
Response line: inactive

Prompt line: Requested read-out: outcome. Entry: CC1Cc2ccccc2N1NC(=O)c1ccc(Cl)c(S(N)(=O)=O)c1 (centres undefined)
Response line: inactive

Prompt line: Name the reported outcome value associated with the molecule "CCCCOCCOCCOC(=O)CCCCC(=O)OCCOCCOCCCC"
Response line: inactive

Prompt line: Report outcome for "CS(=O)(=O)c1ccc([C@@H](O)[C@@H](CO)NC(=O)C(Cl)Cl)cc1" please.
Response line: inactive

Prompt line: Can you share its outcome? I mean this molecule: "CCC(=O)O"
Response line: inactive

Prompt line: Entry C=C1C2CCC(C2)C1(C)C (centres undefined) has what outcome?
Response line: inactive

Prompt line: Suppose we examine the molecule "CCCCNC(N)=O" ; what outcome value has been reported?
Response line: inactive

* * *

- protocol_details: qHTS assay for small molecule disruptors of the mitochondrial membrane potential - cell viability (AID 720634); further: nearly all actives have a fitted effect of over 20% in size
- condition_context: HepG2 viability, ATP luminescence (CellTiter-Glo), 1 h; series mostly up to 83.2 µM
Inconclusive results are not listed. The source made the active and inactive calls. The call rests on the fitted dose curve.
Respond with a class label; see true for active, false for inactive

Prompt line: What classification did CCCCCCCCCCC=CC1CC(=O)OC1=O (stereo unspecified) end up with in this test?
Response line: false

Prompt line: Lab log entry: "CC(C)(CO)COC(=O)C(C)(C)CO" — outcome as called in the assay?
Response line: false

Prompt line: Could you kindly confirm the outcome this assay logged for "C[C@@H](O)[C@H]1C(=O)N2C(C(=O)O)=C(S[C@@H]3CN[C@H](C(=O)N(C)C)C3)[C@H](C)[C@H]12" ?
Response line: false

Prompt line: What did this assay record as the result for "CS(=O)(=O)c1ccc([C@@H](O)[C@@H](CO)NC(=O)C(Cl)Cl)cc1" ?
Response line: false

Prompt line: What outcome does the record of this test show for CCCCCCCCCCCCOCC1CO1 (stereo unspecified) ?
Response line: false

Prompt line: # fetch the recorded call for CCCCC(CC)COC(=O)/C=C\C(=O)OCC(CC)CCCC (stereo unspecified) here
Response line: false

Prompt line: Name the outcome recorded for "CC(C)(N=C=O)c1cccc(C(C)(C)N=C=O)c1" in the assay.
Response line: false

Prompt line: Fill in: this test's call for "O=C(Cl)c1c(Cl)c(Cl)c(C(=O)Cl)c(Cl)c1Cl" is ___
Response line: false

Prompt line: Identify the outcome logged in this assay for the molecule shown: "Oc1ccc(OCc2ccccc2)cc1"
Response line: false

Prompt line: Write down the call the test reported for this molecule. Item: "c1ccc2ccccc2c1"
Response line: false

Prompt line: Per the records of this test, what outcome belongs to "O=S(=O)(O)c1cc(S(=O)(=O)O)c2c(N=Nc3ccccc3)c(O)ccc2c1" ?
Response line: false

Prompt line: Which outcome was entered for the molecule "Oc1ccc2ccccc2c1N=Nc1ccccc1" in this test?
Response line: true

Prompt line: In this assay, the call recorded for "CC#C[C@]1(O)CC[C@H]2[C@@H]3CCC4=CC(=O)CCC4=C3[C@@H](c3ccc(N(C)C)cc3)C[C@@]21C" was what?
Response line: false

Prompt line: Hello, I am checking results. What call was entered for "O=C1O[C@H](CO)[C@@H](O)[C@H](O)[C@H]1O" ?
Response line: false

Prompt line: In this assay, the call recorded for "NC(=O)NNc1ccccc1" was what?
Response line: false

Prompt line: Please state the recorded outcome for this molecule: "Cc1cc(=O)[nH]c(C(C)C)n1"
Response line: false

Prompt line: Test call, this molecule: "COC(=O)Nc1nc2ccc(Sc3ccccc3)cc2[nH]1"
Response line: false

Prompt line: Query: recorded result category for CN(CCOc1ccc(CC2SC(=O)NC2=O)cc1)c1ccccn1 (stereo unspecified) in this test
Response line: false

Prompt line: Write down the call the test reported for this molecule. Item: "O=C(c1ccc(O)cc1)c1ccc(O)cc1O"
Response line: true

Prompt line: Dear colleague, could you share the recorded outcome for CC1COc2ccccc2N1C(=O)C(Cl)Cl (stereo unspecified) when you have a moment?
Response line: false

Prompt line: Field: outcome | Entry: "CC1(C)O[C@@H]2C[C@H]3[C@@H]4C[C@H](F)C5=CC(=O)CC[C@]5(C)[C@H]4[C@@H](O)C[C@]3(C)[C@]2(C(=O)CO)O1"
Response line: false

Prompt line: Please state the recorded outcome for this molecule: "C/C=C(C)/C=C/C=C(C)C"
Response line: false

Prompt line: # lookup: test call for "O=C(O)c1cc(-c2ccccc2)nc2ccccc12"
Response line: false

Prompt line: # lookup: test call for "Cc1ccc(C(=O)O)o1"
Response line: false

Prompt line: Outcome? "c1ccc2[nH]cnc2c1"
Response line: false

Prompt line: Hi, do you know how "CCCCNC(N)=O" came out in this test?
Response line: false

Prompt line: Entry "CC1=C(/C=C/C(C)=C/C=C/C(C)=C/CO)C(C)(C)CCC1" : call = ?
Response line: false

Prompt line: Just curious, what result did "CCCCOCCOCCOC(=O)CCCCC(=O)OCCOCCOCCCC" get here?
Response line: false

Prompt line: Name the outcome recorded for CCCCC(CC)COC(=O)CCCCCCCC(=O)OCC(CC)CCCC (stereo unspecified) in the assay.
Response line: false

Prompt line: Per the records of this test, what outcome belongs to "C=C(C)C(=O)OCCCCCC" ?
Response line: false

Prompt line: What outcome does the record of this test show for "Oc1ccc2ccccc2c1" ?
Response line: false

Prompt line: How was "OC[C@@H](O)[C@H](O)[C@H](O)[C@@H](O)CO" classified in this test?
Response line: false

Prompt line: Could you kindly confirm the outcome this assay logged for "O=[N+]([O-])c1cccc(Cl)c1" ?
Response line: false

Prompt line: What call does the record list for "CCCCCCCCC" ?
Response line: false

Prompt line: Tell me the recorded outcome of this test for "NC(=O)/N=N/C(N)=O" .
Response line: false

Prompt line: Identify the outcome logged in this assay for the molecule shown: "COC(=O)c1ccc(C(=O)OC)cc1"
Response line: false

Prompt line: Fill in: this test's call for "NS(=O)(=O)c1cc2c(cc1Cl)NC=NS2(=O)=O" is ___
Response line: false

Prompt line: In this assay, the call recorded for "OC1CCCC1" was what?
Response line: false

Prompt line: Per the assay record, what outcome was assigned to "CCCCCCC(C)(C)S" ?
Response line: false

Prompt line: Lab log entry: "OC[C@@H](O)[C@@H](O)[C@H](O)[C@@H](O)CO" — outcome as called in the assay?
Response line: false

Prompt line: Write down the call the test reported for this molecule. Item: "C=C(C)C(=O)OCCC[Si](OC)(OC)OC"
Response line: false
